B1: library; numbered along this chain (parent)
chain: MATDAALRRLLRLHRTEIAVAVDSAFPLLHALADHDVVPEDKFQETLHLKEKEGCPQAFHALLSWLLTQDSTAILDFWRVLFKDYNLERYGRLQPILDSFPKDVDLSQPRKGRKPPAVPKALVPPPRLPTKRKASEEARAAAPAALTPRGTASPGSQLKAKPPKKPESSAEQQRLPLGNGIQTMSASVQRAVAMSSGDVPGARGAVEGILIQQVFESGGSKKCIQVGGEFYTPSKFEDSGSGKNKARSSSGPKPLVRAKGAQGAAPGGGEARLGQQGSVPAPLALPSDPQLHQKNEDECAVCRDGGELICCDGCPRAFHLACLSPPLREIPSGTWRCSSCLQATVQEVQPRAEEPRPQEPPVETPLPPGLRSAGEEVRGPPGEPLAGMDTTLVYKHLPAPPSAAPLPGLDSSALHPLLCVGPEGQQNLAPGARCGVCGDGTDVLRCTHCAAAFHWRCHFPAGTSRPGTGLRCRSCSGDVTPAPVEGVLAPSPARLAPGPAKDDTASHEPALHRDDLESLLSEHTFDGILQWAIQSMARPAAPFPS

variants of: B1; test: AIRE transcriptional activation functional score (insulin promoter-GFP; nonsense median 0, synonymous median 1) (normalised score); higher = higher AIRE activity (more reporter activation); conditions: with insulin promoter-GFP reporter in HEK293
measurement label: AIRE transcriptional activation functional score
Provide a numeric answer; units are not to be included.

Using the record for `E359P` , report its AIRE transcriptional activation functional score.
0.935

Using the record for `N244I` , report its AIRE transcriptional activation functional score.
1.07

Using the record for `C311F` , report its AIRE transcriptional activation functional score.
0.878

Using the record for `P115G` , report its AIRE transcriptional activation functional score.
0.828

Using the record for `P315N` , report its AIRE transcriptional activation functional score.
1.1

Using the record for `S545T` , report its AIRE transcriptional activation functional score.
0.998

Using the record for `V443T` , report its AIRE transcriptional activation functional score.
0.921

Using the record for `S99D` , report its AIRE transcriptional activation functional score.
0.205

Using the record for `A145I` , report its AIRE transcriptional activation functional score.
0.806

Using the record for `P115I` , report its AIRE transcriptional activation functional score.
0.466

Using the record for `S411Y` , report its AIRE transcriptional activation functional score.
1.06

Using the record for `M194E` , report its AIRE transcriptional activation functional score.
0.601

Using the record for `A532D` , report its AIRE transcriptional activation functional score.
0.194

Using the record for `P355A` , report its AIRE transcriptional activation functional score.
0.981

Using the record for `S278P` , report its AIRE transcriptional activation functional score.
1.12

Using the record for `A191C` , report its AIRE transcriptional activation functional score.
1.08

Using the record for `R371M` , report its AIRE transcriptional activation functional score.
-0.128

Using the record for `D41W` , report its AIRE transcriptional activation functional score.
0.551

Using the record for `A386Q` , report its AIRE transcriptional activation functional score.
0.654

Using the record for `L414S` , report its AIRE transcriptional activation functional score.
0.625

Using the record for `V345T` , report its AIRE transcriptional activation functional score.
1.24

Using the record for `L106K` , report its AIRE transcriptional activation functional score.
0.511
